Tested on: K562 CRISPRi cells
Protocol description: Constant region variant library pooled growth screen, K562
Assay type: cell-based, human
Conditions: sgRNA constant region variants; relative to the original, un-modified constant region cr995 (= 1)
Reported Mean relative activity values follow for various molecules

{"Molecule": "cr789 (nucleic acid, listed as DNA, chemistry not fully specified) guide: GTTTAAGAGCTAAGCTGGAAACAGCATAGCAAGTTTAAATAAGGCTAGTCCGTTATCAACTTGAAAAAGTGCCACCGAGTCGGTGGT", "Mean relative activity": 0.9955}
{"Molecule": "cr839 (nucleic acid, listed as DNA, chemistry not fully specified) guide: GTTTAAGAGCTAAGCTGGAAACAGCATAGCAAGTTTAAATAAGGCTAGTCCGTTATCAACTTGAGAAAGTGGCACCGAGTCGGTGCT", "Mean relative activity": 0.9918}
{"Molecule": "cr559 (nucleic acid, listed as DNA, chemistry not fully specified) guide: GTTTAAGAGCTAAGCTGGAAACAGCATAGCAAGTTTAAATAAGGCTAGTCCGTTATCAACTTGAAAAAGTGGTACCGAGTCGGTACT", "Mean relative activity": 1.007}
